tested on: Setaria faberi (SETFA); test: Post-emergence efficacy, glasshouse; format: in vivo; settings: 1000 g/Ha, after 13 days, 100=total damage to plant, 0=no damage to plant
Lab note: anything with Control of weed species SETFA at or over 90 counts as Yes; the rest go in No.

[
  {
    "SMILES REPRESENTATION": "COc1ccc2c(P(=O)([O-])OC)c[n+](C)nc2c1",
    "GROUP LABEL": "No"
  },
  {
    "SMILES REPRESENTATION": "C[n+]1cc(P(=O)([O-])Oc2ccccc2)c2ccccc2n1",
    "GROUP LABEL": "No"
  },
  {
    "SMILES REPRESENTATION": "COc1cccc2c(P(=O)([O-])OC)c[n+](C)nc12",
    "GROUP LABEL": "Yes"
  },
  {
    "SMILES REPRESENTATION": "COP(=O)([O-])c1c[n+](C)nc2cc(C(F)(F)F)ccc12",
    "GROUP LABEL": "No"
  },
  {
    "SMILES REPRESENTATION": "COP(=O)([O-])c1c(C)[n+](C)nc2ccccc12",
    "GROUP LABEL": "No"
  },
  {
    "SMILES REPRESENTATION": "C#CCOP(=O)([O-])c1c[n+](C)nc2ccccc12",
    "GROUP LABEL": "Yes"
  },
  {
    "SMILES REPRESENTATION": "COc1ccc2n[n+](C)cc(P(=O)([O-])OC)c2c1",
    "GROUP LABEL": "No"
  }
]
